Where do the numbers come from? From ChEMBL document CHEMBL1201862.

Test system: U-251
Test: NCI tumour cell line growth inhibition, 48 h
Activity calls are given as the source filed them. Rule as the data show it: active = GI50 up to about 1.1 µM and inactive = higher.
I would appreciate it if you answered using one of these outcomes: active, inactive

See these solved cases before continuing.
COMPOUND	CATEGORY
O=C(O)C/C=C/CC(=O)O	inactive
C=CC(O)C#Cc1cnc(OC)nc1OC (centres undefined)	inactive
CNC1=Nc2ccccc2C(=S)N2CSC[C@@H]12	inactive
CN(C)CCNC(=O)c1cccc(CO)c1[N+](=O)[O-]	inactive
CCOC(=N)CC(=O)Nc1ccccc1	inactive
O=C(/C=C1\Nc2ncccc2N=C1CC(=O)c1ccccc1)c1ccccc1	inactive

Hi team, can someone confirm the assay call for CCc1ccccc1NC(=O)C(=O)C(C#N)c1c(Cl)cccc1Cl (centres undefined) ?
inactive

Lab log entry: CC(=O)O[C@H]1C(=O)[C@@]2(C)[C@H]([C@H](OC(=O)c3ccccc3)[C@]3(O)C[C@H](OC(=O)[C@H](O)[C@@H](NC(=O)c4ccc(N(C)C)cc4)c4ccccc4)C(C)=C1C3(C)C)[C@]1(OC(C)=O)CO[C@@H]1C[C@@H]2O — outcome as called in the assay?
active
